- System: HEC-1A
- Assay info: IC50 in endometrial cancer cell lines (untitled table)
- Type: cell-based
- Experimental context: Homo sapiens, PIK3CA^G1049R, PIK3R2^mut, KRAS^mut, Type II
pIC50: −log10 of the molar value.
Property label: pIC50

{"columns": ["Molecule", "Property label", "Result value"],
 "data": [
  ["COc1c(OCCCN2CCOCC2)ccc2c1N=C(NC(=O)c1cnc(N)nc1)N1CCN=C21 [Compound A]", "pIC50", "> 8.16"]
]}
